All figures here come from the supplement of paper PMC10307832.

Tested on: HCC-15
Test: relative viability (nuclei count vs DMSO), 5 days (fraction); higher = more cells survive
Settings: first compound 0.1265 µM
So I've got a bunch of compounds here, and I need their relative viability values.

The examples below pair each entry with its known result.
Compound | relative viability
COc1cc(N2CCC(C(N)=O)CC2)ccc1Nc1nc(N)c(Cl)c(Nc2ccccc2S(=O)(=O)C(C)C)n1 [HG-5-88-01] + CC(=O)Nc1cccc(-n2c(=O)n(C3CC3)c(=O)c3c(Nc4ccc(I)cc4F)n(C)c(=O)c(C)c32)c1 [Trametinib] (partner 0.02 µM) | 0.359
COc1cc(N2CCC(C(N)=O)CC2)ccc1Nc1nc(N)c(Cl)c(Nc2ccccc2S(=O)(=O)C(C)C)n1 [HG-5-88-01] + Nc1nc2[nH]cc(CCc3ccc(C(=O)N[C@@H](CCC(=O)O)C(=O)O)cc3)c2c(=O)[nH]1 [Pemetrexed] (partner 0.2 µM) | 0.221
C[C@@H]1CN(CC(=O)Nc2ccc3c(c2)Cc2cccc(-c4cc(=O)cc(N5CCOCC5)o4)c2S3)C[C@H](C)O1 + COc1cc2c(Oc3ccc(NC(=O)C4(C(=O)Nc5ccc(F)cc5)CC4)cc3F)ccnc2cc1OCCCN1CCOCC1 [Foretinib] (partner 0.25 µM) | 1.06
Clc1ccc(Nc2nnc(Cc3ccncc3)c3ccccc23)cc1 [Vatalanib] + Cc1nc(NC(=O)N2CCC[C@H]2C(N)=O)sc1-c1ccnc(C(C)(C)C(F)(F)F)c1 [Alpelisib] (partner 2 µM) | 0.884
C[C@@H]1CN(CC(=O)Nc2ccc3c(c2)Cc2cccc(-c4cc(=O)cc(N5CCOCC5)o4)c2S3)C[C@H](C)O1 + NC(=O)Nc1cc(-c2cccc(F)c2)sc1C(=O)N[C@H]1CCCNC1 [AZD7762] (partner 0.2 µM) | 1.06
COc1cc(N2CCC(C(N)=O)CC2)ccc1Nc1nc(N)c(Cl)c(Nc2ccccc2S(=O)(=O)C(C)C)n1 [HG-5-88-01] + C[C@]1(O)C[C@@H](c2nc(-c3ccc4ccc(-c5ccccc5)nc4c3)c3c(N)nccn32)C1 [Linsitinib] (partner 1 µM) | 0.837

For each listed entry, give its relative viability.
1. C[C@@H]1CN(CC(=O)Nc2ccc3c(c2)Cc2cccc(-c4cc(=O)cc(N5CCOCC5)o4)c2S3)C[C@H](C)O1 + Cc1nc(NC(=O)N2CCC[C@H]2C(N)=O)sc1-c1ccnc(C(C)(C)C(F)(F)F)c1 [Alpelisib] (partner 2 µM)
2. C[C@@H]1CN(CC(=O)Nc2ccc3c(c2)Cc2cccc(-c4cc(=O)cc(N5CCOCC5)o4)c2S3)C[C@H](C)O1 + CC(C)C[C@H](NC(=O)[C@H](Cc1ccccc1)NC(=O)c1cnccn1)B(O)O [Bortezomib] (partner 0.002 µM)
3. C[C@@H]1CN(CC(=O)Nc2ccc3c(c2)Cc2cccc(-c4cc(=O)cc(N5CCOCC5)o4)c2S3)C[C@H](C)O1 + CCNC(=O)c1noc(-c2cc(C(C)C)c(O)cc2O)c1-c1ccc(CN2CCOCC2)cc1 [Luminespib] (partner 0.01 µM)
4. C[C@@H]1CN(CC(=O)Nc2ccc3c(c2)Cc2cccc(-c4cc(=O)cc(N5CCOCC5)o4)c2S3)C[C@H](C)O1 + C[C@@H](Oc1cc(-c2cnn(C3CCNCC3)c2)cnc1N)c1c(Cl)ccc(F)c1Cl [Crizotinib] (partner 1 µM)
5. C[C@@H]1CN(CC(=O)Nc2ccc3c(c2)Cc2cccc(-c4cc(=O)cc(N5CCOCC5)o4)c2S3)C[C@H](C)O1 + Nc1ncn([C@H]2C[C@H](O)[C@@H](CO)O2)c(=O)n1 [Decitabine] (partner 2 µM)

[0.881, 0.948, 0.282, 0.75, 0.594]
